The measurements presented in this section are drawn from patent US12686690B2.

Reported hOX2R_Ipone max %act values are given for each entry in this list.
Molecular target: hOX2R (Homo sapiens)
Construct: expressed in transfected cells; host or cells: CHO cells (G418 selection)
Assay: hOX2R IPone assay (orexin receptor agonism)
Format: cell-based
Details: maximal activation, IPone readout
Please reply with the bare figure in % and do not write the unit itself.

Take a look at these entries with their results.
>>> observed_result("CCN1Cc2cnc(OC)c(c2)-c2nc(c3nccn3n2)OCCCCC[C@H](CCC(C)(F)F)NC1=O")
100.2
>>> observed_result("CCN1C(=O)N[C@@H](CCC(F)(F)F)CCCCCOc2nc(nn3ccnc23)-c2ccnc(c2)[C@H]1C")
101.4
>>> observed_result("CCN1C(=O)NC(COC)CCCCCOc2nc(cn3ccnc23)-c2cc(ncc2OC)[C@H]1C (single isomer, unassigned) [Example 58B]")
101.1

Let us move to another entry and its hOX2R_Ipone max %act.
input: Quick one: hOX2R_Ipone max %act of CCN1C(=O)N[C@@H](CCC(C)(F)F)CCOCCOc2nc(nn3ccnc23)-c2cc(ncc2OC)[C@H]1C ?
output: 96.86

###

Molecular target: hOX2R (Homo sapiens, UniProt O43614)
Sequence (O43614 1-444): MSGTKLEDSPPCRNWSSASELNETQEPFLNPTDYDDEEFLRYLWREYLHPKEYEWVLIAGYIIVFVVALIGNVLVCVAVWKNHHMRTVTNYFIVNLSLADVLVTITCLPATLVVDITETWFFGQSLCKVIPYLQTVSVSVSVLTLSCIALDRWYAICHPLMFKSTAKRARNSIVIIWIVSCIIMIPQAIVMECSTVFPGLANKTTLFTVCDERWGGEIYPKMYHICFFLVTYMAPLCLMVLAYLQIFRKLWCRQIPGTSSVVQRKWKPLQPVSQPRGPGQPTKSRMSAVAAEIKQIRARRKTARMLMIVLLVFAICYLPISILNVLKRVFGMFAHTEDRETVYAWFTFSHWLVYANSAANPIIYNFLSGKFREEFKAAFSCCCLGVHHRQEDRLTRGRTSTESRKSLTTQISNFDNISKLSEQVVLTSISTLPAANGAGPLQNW
Assay: hOX2R IPone assay (orexin receptor agonism)
Conditions: orexin receptor agonist, IPone readout; read-out: hOX2R_IPone EC50
recorded endpoint: pEC50
Note: pEC50 values are expressed as the negative base-10 logarithm of concentration in M.

Take a look at these entries with their results.
>>> observed_result("CCN1C(=O)NC(COCC(F)(F)F)CCCCCOc2nc(cn3ccnc23)-c2cc(ncc2OC)[C@H]1C (stereo partly drawn)")
9.13
>>> observed_result("CCN1C(=O)N[C@@H](C(F)(F)F)CCCCOc2nc(cn3ccnc23)-c2cc(ncc2OC)C1C(F)(F)F (single isomer, unassigned) [Example 39B]")
5.98

Let us move to another entry and its pEC50.
input: Requested read-out pEC50, target or system hOX2R (Homo sapiens, UniProt O43614), entry CCN1C(=O)N[C@@H](CCC(F)(F)F)CCCCOc2nc(cn3ccnc23)-c2ccnc(c2)[C@@H]1C [Example 29A]
output: 7.37

###

Target: UniProtKB O43614
Assay: hOX2R IPone assay (orexin receptor agonism)
Settings: orexin receptor agonist, IPone readout; read-out: hOX2R_IPone EC50
recorded endpoint: EC50 (nM)
Please reply with the bare figure in nM and do not write the unit itself.

Take a look at these entries with their results.
>>> observed_result("CCN1C(=O)NC(c2cscn2)CCCCCOc2nc(cn3ccnc23)-c2cccc(c2)[C@H]1C (single isomer, unassigned) [Example 19A]")
337
>>> observed_result("CCN1C(=O)N[C@@H](CCC(F)(F)F)CCCCCOc2nc(cn3ccnc23)-c2cc(ncn2)C1C (stereo partly drawn) [Example 112B]")
9.3

Let us move to another entry and its EC50.
input: Requested read-out EC50, target or system UniProtKB O43614, entry CCN1C(=O)NC(C2CCCO2)CCCCCOc2nc(cn3ccnc23)-c2cc(ncc2OC)[C@H]1C (stereo partly drawn) [Example 193]
output: 1.21

###

Biological target: hOX2R (Homo sapiens, UniProt O43614)
Construct: expressed in transfected cells; host or cells: CHO cells (G418 selection)
Sequence (O43614 1-444): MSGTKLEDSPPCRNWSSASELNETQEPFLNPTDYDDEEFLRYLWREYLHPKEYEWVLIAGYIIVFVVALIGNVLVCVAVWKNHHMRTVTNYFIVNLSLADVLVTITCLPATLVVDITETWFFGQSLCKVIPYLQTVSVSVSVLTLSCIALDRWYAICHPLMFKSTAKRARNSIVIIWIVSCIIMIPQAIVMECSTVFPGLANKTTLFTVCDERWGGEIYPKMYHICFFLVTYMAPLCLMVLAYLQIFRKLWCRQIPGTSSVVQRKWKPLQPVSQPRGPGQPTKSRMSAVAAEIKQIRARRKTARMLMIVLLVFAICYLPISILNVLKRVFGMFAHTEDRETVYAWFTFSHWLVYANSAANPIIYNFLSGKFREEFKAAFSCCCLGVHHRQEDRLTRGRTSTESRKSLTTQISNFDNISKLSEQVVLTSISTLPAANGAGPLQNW
Assay: hOX2R IPone assay (orexin receptor agonism)
Type: cell-based
Details: maximal activation, IPone readout
Reported hOX2R_Ipone max %act values are given for each entry in this list.
Please reply with the bare figure in % and do not write the unit itself.

>>> observed_result("CCN1C(=O)NC(COC)CCCCCOc2nc(cn3ccnc23)-c2cc(ncc2OC)[C@H]1C (single isomer, unassigned) [Example 58A]")
100.8
>>> observed_result("CCN1C(=O)N[C@@H](CCC(F)(F)F)CCCCCOc2cc(nn3ccnc23)-c2cc(ncc2OC)[C@H]1C")
109.6

input: Quick one: hOX2R_Ipone max %act of CCN1C(=O)NCCOCCCOc2nc(cn3ccnc23)-c2cc(ncc2OC)[C@H]1C ?
output: 100.2

###

Molecular target: hOX2R (Homo sapiens)
Construct: expressed in transfected cells; host or cells: CHO cells (G418 selection)
Sequence (O43614 1-444): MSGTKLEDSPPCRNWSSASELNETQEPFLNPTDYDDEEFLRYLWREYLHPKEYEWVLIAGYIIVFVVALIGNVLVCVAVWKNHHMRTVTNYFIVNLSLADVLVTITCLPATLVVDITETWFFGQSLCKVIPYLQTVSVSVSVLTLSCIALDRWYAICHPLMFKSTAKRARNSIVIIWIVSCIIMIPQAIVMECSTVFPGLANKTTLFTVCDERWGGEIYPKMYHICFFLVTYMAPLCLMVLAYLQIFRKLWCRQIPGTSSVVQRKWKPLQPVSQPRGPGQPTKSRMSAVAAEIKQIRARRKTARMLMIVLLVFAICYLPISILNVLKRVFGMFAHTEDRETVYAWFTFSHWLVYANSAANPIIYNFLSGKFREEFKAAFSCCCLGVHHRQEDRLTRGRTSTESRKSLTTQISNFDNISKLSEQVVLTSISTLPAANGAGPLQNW
Assay: hOX2R IPone assay (orexin receptor agonism)
Type: cell-based
Conditions: maximal activation, IPone readout
recorded endpoint: hOX2R_Ipone max %act (%)
Please reply with the bare figure in % and do not write the unit itself.

>>> observed_result("CCN1C(=O)NC(CCC(F)(F)F)CCOCCOc2nc(cn3ccnc23)-c2cc(ncc2OC)[C@H]1C (single isomer, unassigned) [Example 6A]")
103.5
>>> observed_result("CCN1C(=O)N[C@@H](CCC(F)(F)F)CCCCCOc2nc(cn3ccnc23)-c2cc(cc(C)n2)[C@@H]1C [Example 118A]")
99.08
>>> observed_result("CCN1C(=O)N[C@@H](CCC(F)(F)F)CCCCCOc2nc(cn3ccnc23)-c2cc(ncc2OC)[C@H]1C")
100.7
>>> observed_result("CCN1C(=O)NCCOCCCOc2nc(cn3ccnc23)-c2cccc(c2)[C@H]1C")
99.6
>>> observed_result("CCN1C(=O)NC2CN(CCCOc3nc(cn4ccnc34)-c3cc(ncc3OC)[C@H]1C)CC2C(F)(F)F (single isomer, unassigned)")
99.48
>>> observed_result("CCN1C(=O)N[C@@H](CCC(F)(F)F)CCCCCOc2nc(nn3c(C)cnc23)-c2cc(ncc2OC)[C@H]1C")
97.96

input: Quick one: hOX2R_Ipone max %act of CCN1C(=O)N[C@@H](CCC(F)(F)F)CCCCOc2nc(cn3ccnc23)-c2cc(ncc2OC)C1C (stereo in doubt) ?
output: 101.2

###

Biological target: hOX2R (Homo sapiens, UniProt O43614)
Construct: expressed in transfected cells; host or cells: CHO cells (G418 selection)
Assay: hOX2R IPone assay (orexin receptor agonism)
Format: cell-based
Conditions: orexin receptor agonist, IPone readout; read-out: hOX2R_IPone EC50
pEC50: −log10 of the molar value.
Classify by measured pEC50: satisfied if it is equal to or exceeds 8, not satisfied if it is smaller.

Known results for molecules:
>>> category_label("CCN1C(=O)N[C@@H](CCC(F)(F)F)CCS(=O)(=O)CCOc2nc(cn3ncnc23)-c2cc(ncc2OC)[C@H]1C")
"not satisfied"
>>> category_label("CCN1C(=O)NC(COC)CCCCCOc2nc(cn3ccnc23)-c2cc(ncc2F)[C@H]1C (stereo partly drawn)")
"satisfied"
>>> category_label("CCN1C(=O)NC(C2CCOCC2)CCCCCOc2nc(cn3ccnc23)-c2cc(ncc2OC)[C@H]1C (single isomer, unassigned) [Example 68B]")
"satisfied"
>>> category_label("CCN1C(=O)N[C@@H](CCC(F)(F)F)CCCCCOc2nc(cn3ccnc23)-c2cc(C)nc(c2)[C@H]1C [Example 107B]")
"satisfied"
>>> category_label("CCN1C(=O)NC(CCC(C)(C)F)CCCCCOc2nc(cn3ccnc23)-c2cc(ncc2OC)[C@H]1C (single isomer, unassigned) [Example 71B]")
"satisfied"

input: Is pEC50 at least 8? Consider CCN1C(=O)NCCN(C)CCC(C)Oc2nc(cn3ccnc23)-c2cccc(c2)[C@H]1C (mixture of isomers)
output: not satisfied
